Compiled from multiple publications: IC50 readings for HPK1 (Homo sapiens (Human), UniProt Q92918).

Worked cases, IC50 given:
INSERT INTO measurements (compound, measured_quantity, recorded_measurement) VALUES
  ('O=c1[nH]ccc2nc(C3CC4CCC3C4)cc(Nc3ccc(N4CCC(O)CC4)cn3)c12 (centres unmarked)', 'IC50', '100 to 1000 nM'),
  ('COc1cc(-c2cc(Nc3ccc(N4CCC(O)CC4)cn3)c3c(=O)[nH]ccc3n2)c(F)cc1CN1CCCCC1', 'IC50', '> 1000 nM'),
  ('C/C(Nc1cc(C)[nH]n1)=C1/C(=O)Nc2cnc(-c3cnccc3C)cc21', 'IC50', '< 50 nM'),
  ('Cc1nc2c(N3CCC4(CC3)CNC4)c(NC(=O)c3ccc(=O)n(-c4c(F)cccc4F)n3)ccc2n1C', 'IC50', '< 100 nM'),
  ('Cc1cc(-c2cnc(N)c(OCc3ccnc(C#Cc4ccc(F)cc4)c3)n2)cc2c1CCN(C)C2', 'IC50', '151 nM'),
  ('CNc1ncc2c(n1)N1CCN=C1C(c1cc(NC(=O)c3cn(C(C)C)c(=O)n(-c4ccc(F)cc4)c3=O)c(F)cc1C)=C2', 'IC50', '100 to 10000 nM');

(Q) Item "C[C@@H]1CN(c2ccc3nc(-c4c(N)c5sccc5[nH]c4=O)[nH]c3c2)C[C@H](C)N1C" with HPK1 (Homo sapiens (Human), UniProt Q92918) - IC50?
(A) ≤ 50 nM

(Q) State its IC50 on HPK1 (Homo sapiens (Human), UniProt Q92918): "Cn1ccc2c(-c3ccc(Nc4ccc(C5CCNCC5)cn4)c4c3CNC4=O)ccnc21"
(A) < 100 nM
